System: MCF7
Experiment: Cytotoxicity against human MCF7 cells
Type: functional
Conditions: Homo sapiens, MCF7; read-out: ED50 (the source's name)
Consider the following compounds and their measured EC50 readings.

Illustrative cases are given below, each with its answer.
Compound: CCCCC[C@H](O)CCCC[C@H](O)[C@H]1CC[C@H]([C@H]2CC[C@H]([C@H](O)CCCC[C@H](O)CCCCCCCC3=C[C@H](C)OC3=O)O2)O1
Measurement target: MCF7
Quantity: EC50
Result: 1.7 µg/mL

Compound: CCCCCCCCCCCCCCCCC[C@@H](O)[C@H]1C[C@H](O)[C@H]([C@H]2CC[C@H]([C@H](O)CCCCCC3=C[C@H](C)OC3=O)O2)O1
Measurement target: MCF7
Quantity: EC50
Result: 0.0037 µg/mL

Compound: CCCCCCCCCCCC[C@H](O)[C@H]1CC[C@H]([C@H](O)CCCCCC(O)CCCCCCC2CC(CC(C)=O)C(=O)O2)O1 (mixture of isomers) [(2,4-CIS/TRANS)-SQUAMOXINE B]
Measurement target: MCF7
Quantity: EC50
Result: 0.0014 µg/mL

Compound: CCCCCCCCCCCC[C@@H](O)[C@H]1CC[C@H]([C@H](O)CCCCCC(O)CCCCCCC2=C[C@H](C)OC2=O)O1 (stereo not given in full)
Measurement target: MCF7
Quantity: EC50
Result: 2.2 µg/mL

Please examine the following record next.
Lookup: Identify measured EC50 associated with `CCCCCCCCCCCCCCCC[C@@H](O)[C@H]1CC[C@H]([C@H](O)CC[C@H](O)CCCCC[C@@H](O)CC2=C[C@H](C)OC2=O)O1`
Found: 1.7 µg/mL

---

Test system: Artemia
Experiment: Toxicity in brine shrimp
Type: organism-based
Details: in vivo
Quantity: LC50 (×10⁻² ug/ml)
Respond with the bare value in ×10⁻² ug/ml.

Molecule: CCCCC[C@H](O)[C@H](O)CCC[C@H](O)[C@H]1CC[C@H]([C@H]2CC[C@H]([C@H](O)CCCCCCCCCCCCC3=C[C@H](C)OC3=O)O2)O1 (stereo in doubt; 97) [PURPUREDIOLIN]
Quantity: LC50
Measured number: 7
//
Molecule: CCCCC[C@H](O)CCCC[C@H](O)[C@H]1CC[C@H]([C@H]2CC[C@H]([C@H](O)CCCC[C@H](O)CCCCCCCC3=C[C@H](C)OC3=O)O2)O1 [PURPURENIN]
Quantity: LC50
Measured number: 2.9
//
Molecule: CCCCCCCCCC[C@@H](O)[C@H]1CC[C@H]([C@H]2CC[C@H]([C@H](O)CCCCCCCC[C@@H](O)CCCC3=C[C@H](C)OC3=O)O2)O1 [BULLACIN]
Quantity: LC50
Measured number: 1.9
//
Molecule: CCCCCCCCCCCC[C@H](O)[C@H]1CC[C@H]([C@H](O)CCCCCC(O)CCCCCCC2CC(CC(C)=O)C(=O)O2)O1 (mixture of isomers) [(2,4-CIS/TRANS)-SQUAMOXINE B]
Quantity: LC50
Measured number: 4.6
//
Molecule: CCCCCCCCCC[C@@H](O)[C@H]1CC[C@@H]([C@H]2CC[C@H]([C@H](O)CCCCCCCCCC[C@@H]3CC(CC(C)=O)C(=O)O3)O2)O1 (mixture of isomers)
Quantity: LC50
Measured number: 2

Lookup: Identify measured LC50 associated with CCCCCCCCCC[C@H](O)[C@H]1CC[C@H]([C@H]2CC[C@H]([C@H](O)CCCCCCCCCC[C@@H]3CC(CC(C)=O)C(=O)O3)O2)O1 (mixture of isomers) [BULLATACINONE]
Found: 7.4

Lookup: Identify measured LC50 associated with CCCCCCCCCC[C@H](O)[C@H]1CC[C@H]([C@H](O)CCCCCC(O)CCCCCCC2CC(CC(C)=O)C(=O)O2)O1 (mixture of isomers)
Found: 9.7

// data source = ChEMBL document CHEMBL1141818
